Record form. Attribute: shrunken log2 fold change. Fill in for each entry.
# Tested on: Escherichia coli TOP10
# measurement notes: shrunken log2 fold change of peptide-encoding DNA abundance (4.5 h post-induction vs induction); higher = less antimicrobial activity (less host growth inhibition)
# measurement context: time post-induction: 4.5 h; library: site-saturation at positions 5, 18, 19, 20
Give the figure by itself; no unit, no explanation.

Fill in: shrunken log2 fold change on Escherichia coli TOP10, entry RRIRPRPPRLPRPRPRPPTFPRP
-0.142

Provide Escherichia coli TOP10 shrunken log2 fold change reading for RRIRPRPPRLPRPRPRPNMMPRP .
-0.593

Report value: shrunken log2 fold change, system: Escherichia coli TOP10, sequence: RRIRNRPPRLPRPRPRPDLPPRP
-0.221

Find the measured shrunken log2 fold change of RRIRLRPPRLPRPRPRPKASPRP with Escherichia coli TOP10 as test system.
-0.231

Specify the recorded shrunken log2 fold change for RRIRNRPPRLPRPRPRPYSEPRP , system: Escherichia coli TOP10.
-2.12

Report its shrunken log2 fold change with Escherichia coli TOP10 as the test system: RRIRGRPPRLPRPRPRPTIRPRP
0.432

Please report shrunken log2 fold change with Escherichia coli TOP10 for item RRIRDRPPRLPRPRPRPDTQPRP .
0.419

Answer briefly: shrunken log2 fold change recorded on Escherichia coli TOP10 for RRIRPRPPRLPRPRPRPGGFPRP
0.318

Find the measured shrunken log2 fold change of RRIRERPPRLPRPRPRPTSKPRP with Escherichia coli TOP10 as test system.
-0.426

Report shrunken log2 fold change under test system Escherichia coli TOP10 for RRIRARPPRLPRPRPRPPDNPRP .
0.576

Specify the recorded shrunken log2 fold change for RRIRQRPPRLPRPRPRPLAPPRP , system: Escherichia coli TOP10.
0.38

Give Escherichia coli TOP10 shrunken log2 fold change for the following sequence: RRIRYRPPRLPRPRPRPGQYPRP
-0.414

Report value: shrunken log2 fold change, system: Escherichia coli TOP10, sequence: RRIRDRPPRLPRPRPRPHMRPRP
0.00207

With Escherichia coli TOP10 as the test system, provide measured shrunken log2 fold change for this sequence: RRIRLRPPRLPRPRPRPKRFPRP
0.104

Under Escherichia coli TOP10, report shrunken log2 fold change for RRIRERPPRLPRPRPRPDCTPRP
0.104

With Escherichia coli TOP10 as the test system, provide measured shrunken log2 fold change for this sequence: RRIRIRPPRLPRPRPRPKTCPRP
0.179

GET shrunken log2 fold change where system = Escherichia coli TOP10 and item = RRIRNRPPRLPRPRPRPNWNPRP
-0.691

For Escherichia coli TOP10, give the measured shrunken log2 fold change of the entry RRIRIRPPRLPRPRPRPCPPPRP
-0.328

Specify shrunken log2 fold change for RRIRFRPPRLPRPRPRPRNHPRP , system Escherichia coli TOP10.
-0.132

Enter recorded shrunken log2 fold change with Escherichia coli TOP10 for RRIRCRPPRLPRPRPRPNIPPRP here.
-0.822

For Escherichia coli TOP10, give the measured shrunken log2 fold change of the entry RRIRPRPPRLPRPRPRPPHSPRP
1.31

Enter measured shrunken log2 fold change, system Escherichia coli TOP10, for the sequence shown: RRIRIRPPRLPRPRPRPTRSPRP
-0.00877

Identify measured shrunken log2 fold change obtained with Escherichia coli TOP10 for RRIRVRPPRLPRPRPRPAWPPRP .
0.537

Determine reported shrunken log2 fold change for RRIRRRPPRLPRPRPRPCMGPRP ; test system: Escherichia coli TOP10.
-0.1

Give measured shrunken log2 fold change for RRIRDRPPRLPRPRPRPNHMPRP (Escherichia coli TOP10).
-0.776

# assay system Escherichia coli TOP10: give shrunken log2 fold change of RRIRNRPPRLPRPRPRPMFTPRP
-0.211

// fetch shrunken log2 fold change; item: RRIRARPPRLPRPRPRPDNNPRP ; system: Escherichia coli TOP10
-0.154

Identify measured shrunken log2 fold change obtained with Escherichia coli TOP10 for RRIRHRPPRLPRPRPRPGKCPRP .
-0.00911

Give shrunken log2 fold change; test system Escherichia coli TOP10; sequence RRIRNRPPRLPRPRPRPQERPRP
0.0235

Give the observed shrunken log2 fold change of RRIRSRPPRLPRPRPRPGYSPRP for Escherichia coli TOP10.
-0.407

# assay system Escherichia coli TOP10: give shrunken log2 fold change of RRIRPRPPRLPRPRPRPKDTPRP
-0.173

For Escherichia coli TOP10, give shrunken log2 fold change of the listed sequence: RRIRRRPPRLPRPRPRPMFHPRP
-0.395

Specify shrunken log2 fold change for RRIRFRPPRLPRPRPRPYWLPRP , system Escherichia coli TOP10.
-0.234

Provide the reported shrunken log2 fold change (system: Escherichia coli TOP10) for RRIRSRPPRLPRPRPRPGNPPRP
0.0113

Provide shrunken log2 fold change, system Escherichia coli TOP10, entry RRIRSRPPRLPRPRPRPWITPRP
-0.305

Using Escherichia coli TOP10 as the test system, report measured shrunken log2 fold change of RRIRLRPPRLPRPRPRPRTQPRP .
0.0772

Report shrunken log2 fold change under test system Escherichia coli TOP10 for RRIRERPPRLPRPRPRPGCLPRP .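 Note: peptides expressed intracellularly from a pBAD plasmid library in pooled LB shake-flask culture, induced with 0.3% L-arabinose, DNA abundance read by NGS, three biological replicates, DESeq2 with apeglm shrinkage.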
-0.017
